The reported measurements were obtained from patent US20220177583A1.

Quick list: EC50 per entry.
# MEASUREMENT_TARGET: T1, human CLDN6, endogenously expressed on cancer cell lines (human, UniProt P56747 1-220)
# T1 construct: also called Endogenous CLDN6+; CLDN6 on ARK2, OVCA429, UMUC4 cells
# T1 sequence: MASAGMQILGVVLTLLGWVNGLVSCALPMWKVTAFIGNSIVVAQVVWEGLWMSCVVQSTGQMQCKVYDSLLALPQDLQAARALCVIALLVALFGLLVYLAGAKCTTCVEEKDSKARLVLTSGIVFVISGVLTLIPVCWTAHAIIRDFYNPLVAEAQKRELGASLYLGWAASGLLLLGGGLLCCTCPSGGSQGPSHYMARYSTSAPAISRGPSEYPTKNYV
# PROCEDURE_DETAILS: FACS dose curve, labelled mAb, ARK2 cells
Answer in nM, number only, no unit symbol.

BINDER	QUANTITY	UNIT_ANNOTATION	RECORDED_NUMBER
AB9 (antibody, V domains shown, Full-length IgG (ExpiCHO)) VH: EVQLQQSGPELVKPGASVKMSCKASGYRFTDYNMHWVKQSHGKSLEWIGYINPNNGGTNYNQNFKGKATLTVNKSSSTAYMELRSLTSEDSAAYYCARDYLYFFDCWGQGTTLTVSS VL: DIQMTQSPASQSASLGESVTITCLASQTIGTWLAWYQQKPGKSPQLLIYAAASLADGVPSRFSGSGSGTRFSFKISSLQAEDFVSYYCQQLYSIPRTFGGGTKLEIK	EC50	nM	1140

Next, consider the following binder.
### Prompt # lookup: EC50 of AB10 (antibody, V domains shown, Full-length IgG (ExpiCHO)) VH: QIQLVQSGPALKKPGETVKISCKASGYTFTDYSMHWIKQAPGKGLKWMGWISTETGEPTYADGFKGRFDFSLETSADTAYLSINNLTNEDTATYFCTRGLWSSFAYWGQGTLVTVSA VL: DVVMTQTPLSLPVSLGDQASISCRASQSLVHSNGNTYLHWFLQKPGQSPKLLIYKVSNRFSGVPDRFSGSGSRTDFTLKISRVEAEDLGVYFCSQITHVPYTFGGGTKLEIK
### Response 2140
